# ka annotations
EXPERIMENTAL TARGET: T1, His9-hMSR1 (human MSR1 extracellular domain) (Homo sapiens, UniProt P21757)
T1 construct: human MSR1 extracellular domain expressed with a N-terminal nonahistidine tag; His9 (nonahistidine) (N); purchased R&D Systems 2708-MS
T1 sequence (P21757 77-451 limits assumed): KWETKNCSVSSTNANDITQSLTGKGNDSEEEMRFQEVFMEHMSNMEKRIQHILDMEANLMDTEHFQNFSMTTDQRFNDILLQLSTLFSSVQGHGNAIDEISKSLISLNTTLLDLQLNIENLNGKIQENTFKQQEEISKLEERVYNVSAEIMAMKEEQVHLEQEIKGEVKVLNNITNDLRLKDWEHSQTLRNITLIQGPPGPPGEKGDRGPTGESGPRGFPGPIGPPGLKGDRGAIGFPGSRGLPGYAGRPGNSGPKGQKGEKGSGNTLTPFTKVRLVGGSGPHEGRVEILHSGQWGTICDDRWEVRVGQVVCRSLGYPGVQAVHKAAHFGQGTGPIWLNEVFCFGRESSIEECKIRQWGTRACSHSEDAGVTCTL
ASSAY SUMMARY: Biacore surface plasmon resonance binding kinetics of anti-MSR1 mAbs, antibody-capture format
RUN CONDITIONS: 37° C.; analyte His9-hMSR1; antibody-capture format; NB = no binding observed

>  <MOLECULE>
H1H21227N: "anti-MSR1 antibodies ... (21227N, 21231N, 21234N) were produced with the original human Fcγ portion"; "H1H" = human IgG1 Fc (antibody, V domains shown, human IgG1 Fc, "anti-MSR1 antibodies ; (21227N, 21231N, 21234N) were produced with the original human Fcγ portion"; "H1H" = human IgG1 Fc) VH: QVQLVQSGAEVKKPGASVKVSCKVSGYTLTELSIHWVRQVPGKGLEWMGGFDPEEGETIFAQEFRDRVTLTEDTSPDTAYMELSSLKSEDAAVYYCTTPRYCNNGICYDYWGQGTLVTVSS VL: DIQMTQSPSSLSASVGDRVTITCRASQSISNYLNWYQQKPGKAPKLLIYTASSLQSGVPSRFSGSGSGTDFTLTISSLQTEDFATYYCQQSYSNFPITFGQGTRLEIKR

>  <ka (M⁻¹ s⁻¹)>
2.56e+06

$$$$
>  <MOLECULE>
H1H27729P-N297Q: anti-MSR1 antibody "made with an N297Q single point mutation in human Fcγ portion" (antibody, V domains shown) VH: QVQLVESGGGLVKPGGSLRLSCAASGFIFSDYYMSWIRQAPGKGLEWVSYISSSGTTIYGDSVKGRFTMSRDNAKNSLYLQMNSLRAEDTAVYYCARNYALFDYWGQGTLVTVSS VL: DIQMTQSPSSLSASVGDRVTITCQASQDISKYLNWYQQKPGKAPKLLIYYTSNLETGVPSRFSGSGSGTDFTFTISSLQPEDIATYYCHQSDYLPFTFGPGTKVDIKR

>  <ka (M⁻¹ s⁻¹)>
239000

$$$$
>  <MOLECULE>
H1H21227N-N297D: "The 21227N antibody was also produced as a third version with a N297D mutation" (antibody, V domains shown) VH: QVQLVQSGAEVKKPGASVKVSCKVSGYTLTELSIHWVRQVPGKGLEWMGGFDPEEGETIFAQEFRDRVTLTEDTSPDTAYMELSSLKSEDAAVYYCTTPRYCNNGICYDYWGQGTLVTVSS VL: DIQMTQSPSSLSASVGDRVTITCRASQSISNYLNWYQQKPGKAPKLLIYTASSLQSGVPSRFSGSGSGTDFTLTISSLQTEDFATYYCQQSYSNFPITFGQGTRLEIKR

>  <ka (M⁻¹ s⁻¹)>
2.73e+06

$$$$
>  <MOLECULE>
H1H27734P-N297Q: one of "Twelve anti-MSR1 antibodies"; "made with an N297Q single point mutation in human Fcγ portion" (antibody, V domains shown) VH: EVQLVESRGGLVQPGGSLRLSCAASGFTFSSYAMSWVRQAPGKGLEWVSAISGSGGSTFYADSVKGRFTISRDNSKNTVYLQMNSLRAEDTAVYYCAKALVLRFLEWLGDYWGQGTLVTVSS VL: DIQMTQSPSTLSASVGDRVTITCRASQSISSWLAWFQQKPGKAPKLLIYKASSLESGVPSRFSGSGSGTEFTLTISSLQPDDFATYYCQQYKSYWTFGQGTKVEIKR

>  <ka (M⁻¹ s⁻¹)>
1.09e+06

$$$$
